biological target: Human liver Cat B (Homo sapiens); construct: Human liver Cat B was purchased from Sigma Aldrich; purchased Sigma Aldrich (St. Louis, MO, USA); host or cells: human liver (tissue-derived); assay: Cat B inhibition assay (fluorogenic substrate z-Arg-Arg-AMC); assay type: biochemical; settings: 30 µM z-Arg-Arg-AMC, pH 5.5, 10 min preincubation, 20 min at 37 °C
Below is a list of entries, each paired with its recorded pIC50 value.
Scale: negative log10 of molar concentration, which is what pIC50 denotes.

>  <COMPOUND>
C=Cc1c(C)c2cc3nc(c4c5[nH]c(cc6nc(cc1[nH]2)C(C=O)=C6CC)c(C)c5C(=O)[C@@H]4C(=O)OC)[C@@H](CCC(=O)O)[C@@H]3C [pheophorbide b]

>  <QUANTITY MEASURED>
pIC50

>  <NUMERIC RESULT>
3.68

$$$$
>  <COMPOUND>
COc1cc(OC2OC(COC3OC(CO)C(O)C(O)C3O)C(O)C(O)C2O)c2c(O)c(C(C)=O)c(C)cc2c1 (stereo not drawn) [torachrysone 8-β-gentiobioside]

>  <QUANTITY MEASURED>
pIC50

>  <NUMERIC RESULT>
4.55

$$$$

Okay, now this compound:
Please indicate pIC50 recorded for C=Cc1c(C)c2cc3nc(c4c5[nH]c(cc6nc(cc1[nH]2)C(C)=C6CC)c(C)c5C(=O)[C@@H]4C(=O)OC)[C@@H](CCC(=O)O)[C@@H]3C [pheophorbide a]
3.71

----------
biological target: Cat K (Homo sapiens, UniProt P43235)
Sequence (P43235 115-329): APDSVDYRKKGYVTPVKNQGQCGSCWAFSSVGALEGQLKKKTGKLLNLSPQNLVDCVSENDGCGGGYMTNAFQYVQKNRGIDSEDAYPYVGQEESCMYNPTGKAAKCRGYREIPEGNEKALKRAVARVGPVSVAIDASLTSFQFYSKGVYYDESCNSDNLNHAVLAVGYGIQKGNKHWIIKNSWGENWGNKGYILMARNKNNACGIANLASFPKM
QUANTITY MEASURED: pKi
Scale: negative log10 of molar concentration, which is what pKi denotes.

Please indicate pKi recorded for C=Cc1c(C)c2cc3nc(c4c5[nH]c(cc6nc(cc1[nH]2)C(C=O)=C6CC)c(C)c5C(=O)[C@@H]4C(=O)OC)[C@@H](CCC(=O)O)[C@@H]3C [pheophorbide b]
4.67
